system: LOX IMVI melanoma; assay: NCI-60 one-dose screen, 48 h (100 = growth as untreated, 0 = no growth, -100 = all killed); conditions: 10 µM unless noted
The panel holds about 83,000 compounds, 20% with a hit somewhere; the sample as a whole holds those more often.
PARAMETER: growth (%)
Numeric only. Scale: %

{"columns": ["COMPOUND", "UNITS SYMBOL", "growth"],
 "data": [
  ["Cn1cc(C(=O)c2nc(-c3c[nH]c4ccc(F)cc34)no2)c2cc(F)ccc21", "%", 95.2],
  ["COc1ccc(/C=N/C2=C(C#N)C(c3ccc(N(C)C)cc3)c3ccc4ccccc4c3O2)cc1 (stereo unspecified)", "%", 37.3],
  ["COc1ccc(NC(=O)c2ccc(/C=C/C(=O)c3ncc[nH]3)cc2)cc1", "%", 26.9],
  ["Oc1ccc(N=Cc2ccccc2O)cc1", "%", 104],
  ["CN(C)S(=O)(=O)c1cccc(-c2nc3sc4c(c3c(=O)[nH]2)CCCC4)c1", "%", 174]
]}

Incoming: Return reported growth; argument: CNC(=O)c1cc(Oc2ccc(NC(=O)Nc3ccc(Cl)c(SC)c3)c(F)c2)ccn1
Outgoing: 37.7

###

Test system: BT-549 breast
Assay: NCI-60 one-dose screen, 48 h (100 = growth as untreated, 0 = no growth, -100 = all killed)
Settings: 10 µM unless noted
Procedure: Growth inhibition of the BT-549 human tumor cell line is measured as a screen for anti-cancer activity. Cells are grown in 96 well plates and exposed to the test compound for 48 hours. Compounds are tested at a single concentration, which is 10^-5 M for most compounds. The reported endpoint is percent growth (GI% or GIPRCNT), where numbers from 0 - 100% represent growth inhibition, and numbers from -100% - 0 represent cell death. For example, a value of 40 represents 60% growth inhibition. […]
This is part of a sample that, as a whole, favours compounds with a hit. Of some 83,000 tested, about 20% had one in any assay. Calls of active or inactive are those of the source. How the source made its calls: active means growth percent below 10; inactive means the rest.
Known growth of a selection of compounds

Past entries and their recorded results:
{"columns": ["STRUCTURE SMILES STRING", "MEASURED ON", "growth"],
 "data": [
  ["CN1CCN(c2nc(NCCCCNc3ccnc4cc(Cl)ccc34)c3ccccc3n2)CC1", "BT-549 breast", "74.6% (inactive)"],
  ["CSc1ccc(-c2ccccc(=O)c2O)cc1", "BT-549 breast", "29.7% (inactive)"],
  ["CCOC(=O)c1cc(C(=O)c2ccc(O)c(O)c2)n2ccc(-c3ccn4c(C(=O)c5ccc(O)c(O)c5)cc(C(=O)OCC)c4c3)cc12", "BT-549 breast", "96% (inactive)"],
  ["O=C1c2ccccc2OC=C(c2ccccc2)N1CCCCNc1ccc(S(=O)(=O)Nc2ncccn2)cc1", "BT-549 breast", "100% (inactive)"]
]}

Now consider a different compound.
Incoming: Reported growth for BT-549 breast, given C#Cc1cccc(NC(=O)c2ccccc2NC(=O)CCl)c1 ?
Outgoing: 61.6% [8.25 µM] (inactive)

###

system: HCC-2998 colon; experiment: NCI-60 one-dose screen, 48 h (100 = growth as untreated, 0 = no growth, -100 = all killed); conditions: 10 µM unless noted
Compounds without any hit were thinned out: in the full panel of roughly 83,000, 20% have a hit.
We use 90% as the dividing line for growth: on or above the line is 1 (yes), below is 0 (no).

A selection of reference data follows.
{"columns": ["STRUCTURE SMILES STRING", "ANSWER LABEL"],
 "data": [
  ["O=C(N=Nc1c(O)[nH]c2ccccc12)c1cc(-c2ccccc2)on1", "1 (yes)"],
  ["NC(=O)c1cc(I)ccc1NC(=O)/C=C/c1ccccc1Cl", "0 (no)"],
  ["C=C1c2nc3ccccc3n2C=C(c2ccc(Cl)cc2)N1Cc1ccc(OC)cc1", "0 (no)"],
  ["O=C1/C(=C(/c2ccccc2)N2CCOCC2)Cc2ccccc21", "0 (no)"],
  ["COc1cc2nc(N3CCCC3)nc(NCCc3ccccc3)c2cc1OC", "0 (no)"]
]}

Incoming: Is it the case that COc1cc(/C=C/c2cc(/C=C/c3ccc(O)c(OC)c3)n(-c3c(C)cccc3C)c(=O)n2)ccc1O has growth reaching or exceeding 90%?
Outgoing: 0 (no)

Incoming: Determine whether this molecule has growth no lower than 90%: CCOC(=O)c1cc(C(=O)c2ccc(O)c(O)c2)n2ccc(-c3ccn4c(C(=O)c5ccc(O)c(O)c5)cc(C(=O)OCC)c4c3)cc12
Outgoing: 1 (yes)

Incoming: Please check the record COc1cccc(Nc2nc(SC)nc(-c3cccc([N+](=O)[O-])c3)c2C#N)c1 and state if its growth is at or above 90%.
Outgoing: 1 (yes)

Incoming: Would you say Cc1nc2ccccc2n1C(=O)C[C@@H]1NC(=S)NC1=O shows growth at minimum 90%?
Outgoing: 1 (yes)

###

test system: T-47D breast; assay: NCI-60 one-dose screen, 48 h; details: 10 µM unless noted
This is part of a sample that, as a whole, favours compounds with a hit. Of some 83,000 tested, about 20% had one in any assay. Calls of active or inactive are those of the source. Rule for the calls: active = growth percent below 10; inactive = the rest.
Respond using exactly one of the listed classes: active, inactive

{"columns": ["STRUCTURE SMILES STRING", "ANSWER LABEL"],
 "data": [
  ["COc1cc(/C=C/c2cc(O)c3cc(C(C)=O)c(=O)oc3c2)cc2c1O[C@]1(C)CC[C@@H](O)C(C)(C)[C@H]1C2", "inactive"],
  ["CCN(CC)c1ccc(-c2cc(-c3cc(OC)c(OC)c(OC)c3)nc(N3CCOCC3)c2C#N)cc1", "inactive"]
]}

Incoming: Please share the test call associated with N#CN1CCC[C@H]1C(=O)N1CCc2c(-c3[nH]nc4ncccc34)cccc21 .
Outgoing: inactive

Incoming: Each compound tested received a call. Report the one for COC(=O)[C@]12CCC(C)(C)C[C@H]1[C@H]1C(=O)C[C@@H]3[C@@]4(C)c5c([nH]c6ccccc6c5=O)C(C)(C)[C@@H]4CC[C@@]3(C)[C@]1(C)CC2 .
Outgoing: inactive

Incoming: Hi team, can someone confirm the assay call for O=C(Oc1cccnc1)c1ccsc1Nc1ccnc(C(F)(F)F)c1 ?
Outgoing: inactive

###

Recorded growth for the following compounds
tested on: TK-10 renal; test: NCI-60 one-dose screen, 48 h (100 = growth as untreated, 0 = no growth, -100 = all killed); settings: 10 µM unless noted
About 83,000 compounds went through this panel and 20% of them were active in at least one assay; those are over-represented in the sample as a whole.
Answer with a number only, understood to be in %.

Example results:
{"columns": ["COMPOUND", "PARAMETER", "UNITS SYMBOL", "RECORDED NUMBER"],
 "data": [
  ["CCOc1nc(-c2ccccc2)cc2c(O)c(C(=O)O)[nH]c(=O)c12", "growth", "%", 134],
  ["COc1cc(-c2nn(C)nc2-c2cc3ccccc3s2)cc(OC)c1OC", "growth", "%", 65],
  ["CCOC(=O)c1csc(NC(=O)COc2cccc(/C=C3\\CSc4ccccc4C3=O)c2)n1", "growth", "%", 68.6],
  ["O=S(=O)(Nc1ccc(NS(=O)(=O)c2ccccc2)c(Cl)c1)c1ccccc1", "growth", "%", 100],
  ["c1ccc(CCNc2ncnc3[nH]ncc23)cc1", "growth", "%", 110]
]}

Incoming: # get_value(readout='growth', item= CCN1CCN(c2nc(NCCCNc3ccnc4cc(Cl)ccc34)c3ccccc3n2)CC1 )
Outgoing: 42.3

Incoming: So what's the measured growth for this one? Cc1cc(N2CCN(C)CC2)nc(NC2CCCC(Nc3ccnc4cc(Cl)ccc34)C2)n1 (stereo not given)
Outgoing: -75.8

Incoming: Please look up its growth: COc1ccc(C(=O)c2sc3nc(C)cc(C)c3c2N)cc1OC
Outgoing: 88.7

Incoming: Query (compound): CCN(CC)c1ccc(-c2cc(-c3cc(OC)c(OC)c(OC)c3)nc(N3CCOCC3)c2C#N)cc1 ; field requested: growth
Outgoing: 49.4

Incoming: Data request, read-out growth, for COc1cc2nc(N3CCCC3)nc(NCCc3ccccc3)c2cc1OC
Outgoing: 98.3

###

test system: LOX IMVI melanoma; test: NCI-60 one-dose screen, 48 h (100 = growth as untreated, 0 = no growth, -100 = all killed); conditions: 10 µM unless noted
Compounds without any hit were thinned out: in the full panel of roughly 83,000, 20% have a hit.
Measured growth, listed per entry for reference.
// return numeric value only (unit: %, not printed)

These recorded examples may help you get a feel for the data.
{"columns": ["COMPOUND", "growth, %"],
 "data": [
  ["O=C(O)c1ccc(N=CC(=O)c2ccc(-c3ccccc3)cc2)cc1", 101],
  ["CC(C)(C)N1CCC1CN (stereo unspecified)", 109],
  ["CC(C)C1=C[C@@]23CC[C@@H]4[C@](C)(CCC[C@@]4(C)C(=O)N4CCCNCC4)[C@H]2C[C@@H]1[C@H]1C(=O)CCC(=O)[C@H]13", 92.1],
  ["CCOc1nc(-c2ccccc2)cc2c(O)c(C(=O)N/N=C/c3ccc(O)cc3O)[nH]c(=O)c12", -0.51],
  ["CC(=O)OCCC/C(=C/c1cc2ccccc2c2ccccc12)[N+](=O)[O-]", -70.6]
]}

Consider the record given below.
Incoming: # growth lookup, item COc1ccc2cc(-c3nn(-c4ccc(C(=O)O)cc4)cc3CO)ccc2c1
Outgoing: 101
